assayed_system: CDK4/cyclinD1 (Homo sapiens)
Sequence (P11802 whole entry): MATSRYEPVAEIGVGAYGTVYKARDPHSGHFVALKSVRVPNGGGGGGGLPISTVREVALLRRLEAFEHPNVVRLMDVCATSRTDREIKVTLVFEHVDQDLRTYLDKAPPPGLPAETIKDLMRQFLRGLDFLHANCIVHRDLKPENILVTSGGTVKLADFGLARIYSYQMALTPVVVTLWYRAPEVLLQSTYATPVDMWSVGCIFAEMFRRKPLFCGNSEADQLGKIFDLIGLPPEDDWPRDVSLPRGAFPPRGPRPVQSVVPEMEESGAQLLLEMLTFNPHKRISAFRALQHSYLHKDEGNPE
Sequence (P24385 whole entry partner): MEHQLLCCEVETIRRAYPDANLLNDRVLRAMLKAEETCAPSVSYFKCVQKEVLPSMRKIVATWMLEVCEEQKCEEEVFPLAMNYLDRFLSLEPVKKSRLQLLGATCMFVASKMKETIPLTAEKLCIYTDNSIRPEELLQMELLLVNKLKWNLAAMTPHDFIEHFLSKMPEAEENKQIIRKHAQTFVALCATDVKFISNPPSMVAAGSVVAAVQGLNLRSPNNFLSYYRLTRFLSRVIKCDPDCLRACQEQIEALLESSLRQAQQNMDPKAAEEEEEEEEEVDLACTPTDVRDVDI
procedure_text: In vitro filtration assay for CDK4 inhibitory activity (pRb phosphorylation, [33P]-ATP)
Format: biochemical
setup_conditions: GST-pRb substrate, 1 μM unlabeled ATP, 25° C. 45 minutes, read-out: cdk4 filter (pIC50) (converted)
Experimental: Compounds of the present invention were tested in an in vitro filtration assay assessing CDK4 activity by means of its pRb-phosphorylation activity using [^33P]-ATP as phosphor donor. The radioactive phosphorylated pRb is then captured on filtermats and the incorporated [^33P] quantitated using a phosphorage storage screen. The CDK4 kinase reaction is performed at 25° C. for 45 minutes in a 96-well microtiterplate. […]
measured_endpoint: IC50 (nM)

>>> experimental_result("CC(C)(C)OC(=O)N1CCN(c2ccc(Nc3ncc4cnn(C5CCCCC5)c4n3)nc2)CC1")
6310
>>> experimental_result("c1ccc(N2CCN(Cc3ccc(Nc4ncc5cnn(C6CCCCC6)c5n4)cc3)CC2)nc1")
100
>>> experimental_result("COCCCN1CCN(Cc2ccc(Nc3ncc4cnn(C5CCCCC5)c4n3)cc2)CC1")
63.1

[I] COCCCN1CCN(c2ccc(Nc3ncc4c(n3)N(C3CCCCC3)C(=O)C4)cc2)CC1
[II] c1cc(Nc2ncc3cnn([C@H]4C[C@@H]5CC[C@H]4C5)c3n2)ccc1CNCCN1CCOCC1
[III] CC(C)(C)OC(=O)N(c1ccc(CNC2CCOCC2)cc1)c1ncc2cnn(C3CCCCC3)c2n1
Query block: List by increasing IC50. Form field (ranking): labels in requested order.
Result block: II, I, III
(II: 200 nM, I: 316 nM, III: 7940 nM)

----------
assayed_system: AURORA A (Homo sapiens)
Sequence (O14965 whole entry): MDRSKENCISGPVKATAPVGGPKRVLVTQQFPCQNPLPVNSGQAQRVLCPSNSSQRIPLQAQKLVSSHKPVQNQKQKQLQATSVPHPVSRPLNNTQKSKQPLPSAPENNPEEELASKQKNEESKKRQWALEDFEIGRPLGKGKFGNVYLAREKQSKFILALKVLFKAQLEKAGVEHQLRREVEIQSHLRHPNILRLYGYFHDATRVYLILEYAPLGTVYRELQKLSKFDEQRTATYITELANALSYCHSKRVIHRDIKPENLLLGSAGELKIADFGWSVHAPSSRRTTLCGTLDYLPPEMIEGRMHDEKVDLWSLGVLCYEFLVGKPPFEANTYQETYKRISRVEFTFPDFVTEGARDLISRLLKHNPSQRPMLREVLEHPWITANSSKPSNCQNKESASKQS
procedure_text: In vitro filtration assay for AURORA A inhibitory activity
Format: biochemical
setup_conditions: Kemptide substrate, 1 μM unlabeled ATP, 25° C. 40 minutes, read-out: Aurora A see C.2 (pIC50) (converted)
measured_endpoint: IC50

Query block: Specify measured IC50 for CC(C)(C)OC(=O)N1CCN(c2ccc(Nc3ncc4cnn(C5CCCCC5)c4n3)nc2)CC1 [compound 29] .
Result block: > 10 µM

Query block: Specify measured IC50 for OC1CCN(c2ccc(Nc3ncc4cnn(C5CCCCC5)c4n3)cc2)CC1 [compound 20] .
Result block: 0.501 µM

Query block: Specify measured IC50 for O=C(NC1CCN(CCO)CC1)c1ccc(Nc2ncc3cnn(C4CCCCC4)c3n2)cc1 [Co. No. 9] .
Result block: 0.251 µM

----------
assayed_system: CDK4/cyclinD1 (Homo sapiens)
procedure_text: In vitro filtration assay for CDK4 inhibitory activity (pRb phosphorylation, [33P]-ATP)
Type: biochemical
setup_conditions: GST-pRb substrate, 1 μM unlabeled ATP, 25° C. 45 minutes, read-out: cdk4 filter (pIC50) (converted)
measured_endpoint: IC50 (nM)

>>> experimental_result("CN1CCC(N(Cc2ccc(Nc3ncc4cnn(C5CCCCC5)c4n3)cc2)C(=O)OC(C)(C)C)CC1")
25.1
>>> experimental_result("c1cc(N2CCNCC2)ccc1Nc1ncc2cnn(C3CCCCC3)c2n1")
15.8
>>> experimental_result("NS(=O)(=O)N1CCN(c2ccc(Nc3ncc4cnn(C5CCCCC5)c4n3)cc2)CC1")
39.8

[1] CC(=O)N1CCN(c2ccc(Nc3ncc4[nH]c(=O)n(C5CCCCC5)c4n3)cc2)CC1
[2] OCCN1CCN(Cc2ccc(Nc3ncc4cnn(C5CCOCC5)c4n3)cc2)CC1
[3] c1cc(N2CCOCC2)ncc1Nc1ncc2cnn(C3CCCCC3)c2n1
Query block: List by increasing IC50. Form field (ranking): labels in requested order.
Result block: 3, 2, 1

# credit: patent US7947695B2
